Exercise: state measured TGI for each of the compounds provided.
- Tested on: NCI-H226 lung
- protocolNotes: NCI tumour cell line growth inhibition, 48 h

Request: Recorded TGI of `C[Si](C)(OCCS(=O)(=O)O)OC(=C1S(=O)(=O)OCCOS1(=O)=O)c1cccc2ccccc12` , please.
Result: > 100 µM

Request: Query (compound): `O=C(Oc1ccc(Cl)cc1[N+](=O)[O-])c1ccccc1` ; field requested: TGI
Result: > 100 µM

Request: What value of TGI has been recorded for this entry: `O=c1oc2ccc(-n3c(=O)c4ccccc4c4ccccc4c3=O)cc2c2ccccc12`
Result: > 100 µM

Request: Param item = `CC[C@@]1(O)C(=O)OCc2c1cc1n(c2=O)Cc2c-1nc1cc3c(cc1c2C)OCO3` ; retrieve measured TGI.
Result: 0.0195 µM

Request: Param item = `COc1ccc(NC(=S)N/N=C(\C)c2nc3ncccc3[nH]2)cc1` ; retrieve measured TGI.
Result: 21.7 µM

Request: # input compound: Cc1cc(Oc2ccc3nc(COc4ccc(CC5SC(=O)NC5=O)cc4)n(C)c3c2)cc(C)c1N (stereo not drawn) ; wanted: its TGI
Result: > 95.7 µM

Request: Item CCCCCCCC(=O)OCC1OC(OC)C(NC(=O)N(CCCl)N=O)C(O)C1O (stereo not drawn) has what recorded TGI?
Result: 42.1 µM

Request: Could you tell me which TGI is on file for `C[C@H](CCCNCCCNCCCN)[C@H]1CC[C@H]2[C@@H]3[C@H](OCCCN)C[C@H]4C[C@H](OCCCN)CC[C@]4(C)[C@H]3C[C@H](OCCCN)[C@]12C` ?
Result: > 76.7 µM

====

For each entry below, report its TGI value.
- Tested on: SK-MEL-5 melanoma
- protocolNotes: NCI tumour cell line growth inhibition, 48 h

Request: # TGI lookup, item O=c1[nH]c(=O)n(C2CC(O)C(CO)O2)cc1OCC1CCCCC1 (stereo not drawn)
Result: > 100 µM

Request: What value of measured TGI is listed for `COC(=O)CSC(=S)Nc1nnc(NC(=S)SCOC(C)=O)n1C(=S)SCC(=O)OC` ?
Result: > 100 µM

Request: For the molecule shown here, `Cc1nn(-c2nc3ccccc3s2)c2c1C(=O)c1ccccc1-2` , give the reported TGI.
Result: > 100 µM

====

- System: CCRF-CEM leukemia
- protocolNotes: NCI tumour cell line growth inhibition, 48 h
Consider the following molecules; for each one, report its TGI.

Request: What value of TGI has been recorded for this entry: `COc1cc(S(=O)(=O)Nc2nc(-c3ccc(N4C(=O)/C(=C/c5ccccc5[N+](=O)[O-])N=C4c4ccccc4)cc3)cs2)ccc1Cl`
Result: > 100 µM

Request: Entry CC(O)C1(CNc2cc(Cl)nc(N)n2)CC(CCc2ccccc2)C1 (stereo not drawn) has what TGI?
Result: 94.5 µM

Request: Which TGI reading was recorded for the molecule OCC1OC(n2cnc3c(Cl)nc(Cl)cc32)C(O)C1O (stereo not drawn) ?
Result: > 100 µM

Request: Find the recorded TGI belonging to `CCCCCCc1nc2nc(Cl)c(Cl)nc2[nH]1` and report it.
Result: > 100 µM

Request: Could you tell me which TGI is on file for `COC(=O)CSC(=S)Nc1nnc(NC(=S)SCOC(C)=O)n1C(=S)SCC(=O)OC` ?
Result: > 100 µM

Request: Give its TGI value. Item: `COc1cc(/C=C\c2cccnc2)cc(OC)c1OC`
Result: > 100 µM

Request: Recorded TGI of `Cc1cc(C)nc(SCCc2cccc[n+]2C)n1` , please.
Result: > 100 µM

Request: Suppose we examine the molecule Cc1ccc2[nH]c3c(c2c1)C1CCC(C(C)(C)C)CC1C1C(=O)N(c2ccc4c(c2)OCO4)C(=O)C31 (stereo not drawn) ; what TGI value has been reported?
Result: 3.81 µM

Request: Look at this molecule and give its reported TGI. `Br/C(=N\Nc1nn[nH]n1)c1ccncc1`
Result: > 100 µM

Request: Name the recorded TGI for `O[C@@H]1C[C@H]2N3CC[C@@]2(c2cc4c(cc2C3)OCO4)[C@H]2O[C@@H]12` .
Result: > 100 µM

Request: Would you kindly share the measured TGI for COc1ccc2[nH]cc(CCNC(=O)[C@](O)(Cc3cn(C)c4ccccc34)[C@@]3(O)OCC(O)C3O)c2c1 (stereo partly drawn) ?
Result: > 100 µM

Request: Item `COc1ccc2nc3ccccc3c(NCCCN(C)CCCl)c2c1` has what recorded TGI?
Result: 1.58 µM

Request: Any idea what its TGI is? The molecule is COC(=O)[C@H](Cc1ccc(O)cc1)NC(=O)[C@@H](OC)[C@@H]1Cc2cc3cc(OC4CC(OC5CC(O)C(O)C(C)O5)C(O)C(C)O4)c(C)c(O)c3c(O)c2C(=O)[C@H]1OC1CC(OC2CC(OC3CC(C)(O)C(O)C(C)O3)C(O)C(C)O2)C(O)C(C)O1 (stereo partly drawn)
Result: > 25 µM

Request: What value of TGI has been recorded for this entry: `CCOC(=O)/C(=C(/C)NCC(C)C)c1cc(O)c(O)c2c(C)cc(=O)[nH]c12`
Result: 55.5 µM

Request: Would you mind telling me what TGI value was observed for `C[Si](C)(OCCS(=O)(=O)O)OC(=C1S(=O)(=O)OCCOS1(=O)=O)c1cccc2ccccc12` ?
Result: > 100 µM

Request: Which value of TGI has been reported for `C1=NCCNCCNCCN=Cc2ccccc2OCc2cccc(n2)COc2ccccc21` in the records?
Result: 55.1 µM

Request: Data request, read-out TGI, for `COc1cc(/C=C/C(=O)CC(=O)/C=C/c2ccc(O)c(OC)c2)ccc1O`
Result: 15.6 µM

Request: Need TGI of O=C1OC2CC=CC1C2 (stereo not drawn) , thanks.
Result: > 100 µM
